Tested on: MBNL1 exon 5 inclusion in DM1 myotubes
Experiment: Myotube splicing rescue assay (MBNL1 exon 5 inclusion)
Type: cell-based, human
Conditions: 1 μM, 48-hour incubation
I'd be grateful if you could share measured MBNL1 % splicing rescue at 1 μM for these entries.
Respond numerically; units are % and should not be typed.

Req: Fill in MBNL1 % splicing rescue at 1 μM for record O=C(NCCN1CCCCC1)c1ccc2nc(-c3ccc(-c4nc5ccc(C(=O)NCCN6CCCCC6)cc5[nH]4)c([N+](=O)[O-])c3)[nH]c2c1
Resp: 1.5

Req: Fill in MBNL1 % splicing rescue at 1 μM for record CN(C)CCCSc1ccc2nc(-c3ccc(-c4nc5ccc(SCCCN(C)C)cc5[nH]4)cc3)[nH]c2c1
Resp: 18.9

Req: Fill in MBNL1 % splicing rescue at 1 μM for record O=C(NCCN1CCCCC1)c1ccc2nc(-c3ccc(-c4nc5ccc(C(=O)NCCN6CCCCC6)cc5[nH]4)cc3)[nH]c2c1
Resp: 43.7

Req: Fill in MBNL1 % splicing rescue at 1 μM for record c1cc(-c2nc3cc(-c4ccc5[nH]c(-c6ccc(OCCN7CCCCC7)cc6)nc5c4)ccc3[nH]2)ccc1OCCN1CCCCC1
Resp: 47.2

Req: Fill in MBNL1 % splicing rescue at 1 μM for record CN(C)CCOc1ccc(-c2nc3cc(-c4ccc5[nH]c(-c6ccc(OCCN(C)C)cc6)nc5c4)ccc3[nH]2)cc1
Resp: 82.1

Req: Fill in MBNL1 % splicing rescue at 1 μM for record CN(C)CCCCCOc1ccc(-c2nc3cc(-c4ccc5[nH]c(-c6ccc(OCCCCCN(C)C)cc6)nc5c4)ccc3[nH]2)cc1
Resp: 79.7
